system.name: recombinant human TFPI (tissue factor pathway inhibitor) (human, UniProt P10646 29-304)
assay.name: cell-based or functional assay
property.label: A405, TF/FVIIa/FX complex assay, Ab 3.13 nM
Number only, no unit.

Take a look at these entries with their results.
[[record]]
binder = "clone 3203 (antibody, V domains shown) VH: EVQLVESGGGLVKPGGSLRLSCAASGFTFSSYAMSWVRQAPGKGLEWVSTITTGGSYTYYADSVEGRFTISRDNAKNSLYLQMNSLRAEDTAVYYCARQDGNFLMDYWGQGTLVTVSS VL: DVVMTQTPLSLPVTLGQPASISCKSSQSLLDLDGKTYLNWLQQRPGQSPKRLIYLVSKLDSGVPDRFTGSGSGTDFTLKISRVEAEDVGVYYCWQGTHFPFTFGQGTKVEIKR"
measurement = 0.162

[[record]]
binder = "clone 3241 (antibody, V domains shown, scFv on yeast at selection; human IgG4/kappa IgG as purified; also called No. 3241 antibody) VH: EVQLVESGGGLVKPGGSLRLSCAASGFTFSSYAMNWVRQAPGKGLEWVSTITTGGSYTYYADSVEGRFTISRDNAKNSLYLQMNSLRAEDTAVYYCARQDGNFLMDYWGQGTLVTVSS VL: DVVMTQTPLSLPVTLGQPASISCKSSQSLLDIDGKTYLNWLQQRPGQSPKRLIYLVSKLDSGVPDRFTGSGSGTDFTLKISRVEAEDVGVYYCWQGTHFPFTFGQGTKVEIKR"
measurement = 0.171

[[record]]
binder = "clone 1023 (antibody, V domains shown, scFv on yeast at selection; human IgG4/kappa IgG as purified) VH: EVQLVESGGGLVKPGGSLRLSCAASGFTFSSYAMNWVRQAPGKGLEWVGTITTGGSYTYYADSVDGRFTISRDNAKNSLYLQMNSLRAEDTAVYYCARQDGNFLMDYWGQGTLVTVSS VL: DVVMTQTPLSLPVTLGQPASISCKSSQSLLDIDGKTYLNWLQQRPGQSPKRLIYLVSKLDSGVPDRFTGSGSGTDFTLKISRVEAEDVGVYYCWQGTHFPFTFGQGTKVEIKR"
measurement = 0.16


// below: A405, TF/FVIIa/FX complex assay, Ab 3.13 nM requested for another binder
What value of A405, TF/FVIIa/FX complex assay, Ab 3.13 nM has been reported for the following binder? clone A67 (antibody, V domains shown) VH: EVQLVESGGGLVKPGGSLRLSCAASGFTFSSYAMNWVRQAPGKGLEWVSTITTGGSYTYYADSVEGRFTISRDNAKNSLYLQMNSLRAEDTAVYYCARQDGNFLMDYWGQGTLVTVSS VL: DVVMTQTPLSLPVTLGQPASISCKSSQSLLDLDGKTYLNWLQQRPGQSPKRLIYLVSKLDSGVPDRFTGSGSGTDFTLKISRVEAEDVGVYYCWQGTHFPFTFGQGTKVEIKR
0.172
